- system.under.test: Kir1.1 (ROMK1) (Homo sapiens (Human), UniProt P48048)
- Sequence (P48048 whole entry): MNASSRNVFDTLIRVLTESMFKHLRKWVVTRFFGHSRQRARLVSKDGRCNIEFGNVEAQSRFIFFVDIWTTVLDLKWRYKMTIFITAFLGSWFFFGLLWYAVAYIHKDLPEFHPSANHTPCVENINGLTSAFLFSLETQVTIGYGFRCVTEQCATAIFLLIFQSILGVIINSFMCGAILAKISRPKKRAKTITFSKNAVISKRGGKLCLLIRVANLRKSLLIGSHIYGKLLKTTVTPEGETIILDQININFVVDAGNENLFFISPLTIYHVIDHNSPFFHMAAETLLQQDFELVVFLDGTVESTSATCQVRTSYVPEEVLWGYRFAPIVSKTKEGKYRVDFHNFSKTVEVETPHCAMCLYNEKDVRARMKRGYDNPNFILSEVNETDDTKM
- run.description: Electrophysiology Assay (whole cell voltage clamp, IonWorks Quattro)
- Type: cell-based
- test.parameters: Electrophysiology IC50, Chinese hamster ovary cells stably expressing Kir1.1; block during voltage step to 0 mV
Please go through the items and note down their IC50.
Answers are plain numbers, in nM.

Some molecules with known IC50 results, for comparison:
query.smiles: COc1cc(CC(=O)N2CCN3C[C@@H](c4ccc(F)c(C#N)c4)OC[C@@H]3C2)ccc1C#N
IC50, nM: 160

query.smiles: C[C@@H]1Cc2cc([C@@H]3CN4CCN(C(=O)Cc5ccc(-n6cnnn6)cc5)C[C@H]4CN3)ccc2C(=O)O1
IC50, nM: 380

query.smiles: COc1c([C@@H]2CN3CCN(C(=O)Cc4ccc(-n5cnnn5)cc4)C[C@H]3CO2)ccc(F)c1C#N
IC50, nM: 140

Required: IC50, one value per molecule below.
1. Cc1c([C@H]2CN3CCN(C(=O)Cc4c(F)cc(-n5cnnn5)cc4F)C[C@H]3CN2)ccc(F)c1C#N
2. O=C(Cc1ccc(-n2cnnn2)cc1)N1CCN2C[C@@H](c3ccc4nonc4c3)OC[C@@H]2C1
3. COc1cc(CC(=O)N2CCN3C[C@H](c4ccc5c(c4)CCOC5=O)OC[C@H]3C2)ccc1C#N

[80, 50, 130]

Give IC50 for each listed item.
1. N#Cc1cc([C@@H]2CN3CCN(C(=O)Cc4cc(F)c(C#N)cc4F)C[C@H]3CO2)ccc1F
2. Cc1c([C@@H]2CN3CCN(C(=O)Cc4ccc(-n5cnnn5)cc4)C[C@H]3CO2)ccc(Cl)c1C#N
3. Cc1c([C@H]2CN3CCN(C(=O)Cc4ccc(-n5cnnn5)cc4)C[C@H]3CN2)ccc2c1COC2=O
4. COc1cc(CC(=O)N2CCN3C[C@@H](c4ccc5c(c4)CCOC5=O)OC[C@@H]3C2)c(F)cc1C#N
5. O=C1OCc2c1ccc([C@@H]1CN3CCN(C(=O)Cc4ccc(-n5cnnn5)cc4)C[C@H]3CO1)c2Cl
6. Cc1c([C@@H]2CN3CCN(C(=O)Cc4ccc(-n5cnnn5)cc4C#N)C[C@@H]3CO2)ccc(F)c1C#N
7. Cc1c([C@@H]2CN3CCN(C(=O)Cc4ccc(-n5cnnn5)cc4)C[C@H]3CO2)csc1C#N
8. COc1cc(CC(=O)N2CCN3C[C@H](c4ccc5c(c4)CCOC5=O)OC[C@H]3C2)c(F)cc1C#N

[120, 200, 250, 110, 60, 120, 60, 120]

###

- system.under.test: hROMK (hKir1.1) (Homo sapiens (Human))
- run.description: Thallium Flux Assay (ROMK channel functional thallium flux, FLIPR-Tetra)
- Format: cell-based
- test.parameters: HEK293 cells stably expressing hROMK (hKir1.1); read-out: Thallium Flux IC50
- Procedure: Cell Culture Conditions—HEK293 cells stably expressing hROMK (hKir1.1) were grown at 37° C. in a 10% CO2 humidified incubator in complete growth media: Dulbecco's Modified Eagle Medium supplemented with non-essential amino acids, Penicillin/Streptomycin/Glutamine, G418 and FBS. […] Data Calculation—The fluorescence intensity of wells containing 3 μM of a standard control ROMK inhibitor of the present invention is used to define the ROMK-sensitive component of thallium flux. […]
Record form. Attribute: IC50. Fill in for each entry.
Give bare numbers, in nM.

Known results for compounds:
compound: Cc1c([C@H]2CN3CCN(C(=O)CCc4cccc(-n5cnnn5)c4)C[C@H]3CO2)ccc2c1COC2=O
IC50 (nM): 490

compound: Cc1c(C#N)cccc1[C@H]1CN2CCN(C(=O)Cc3ccc(-n4cnnn4)cc3)C[C@H]2CO1
IC50 (nM): 140

compound: Cc1c([C@@H]2CN3CCN(C(=O)Cc4cccc(-n5cnnn5)c4)C[C@@H]3CO2)ccc(F)c1C#N
IC50 (nM): 200

compound: Cc1c([C@H]2CN3CCN(C(=O)Cc4ccc(-n5cnnn5)cc4)C[C@H]3CO2)ccc2nonc12
IC50 (nM): 210

compound: Cc1c([C@@H]2CN3CCN(C(=O)Cc4ccc(-n5cnnn5)cc4)C[C@H]3CN2)ccc(F)c1C#N
IC50 (nM): 70

Hi! Can you tell me IC50 for each of these compounds?
1. Cc1c([C@@H]2CN3CCN(C(=O)C4CCCc5cc(-n6cnnn6)ccc54)C[C@H]3CO2)csc1C#N (single isomer, unassigned)
2. Cc1c([C@H]2CN3CCN(C(=O)C4CCCc5cc(-n6cnnn6)ccc54)C[C@H]3CO2)ccc2c1COC2=O (single isomer, unassigned)
3. COc1cc(CC(=O)N2CCN3C[C@H](c4ccc5c(c4)CCOC5=O)OC[C@H]3C2)ccc1C#N

1. 460
2. 380
3. 330

Dear colleague, could you send me IC50 for each of the items below? Thanks.
1. Cc1c([C@@H]2CN3CCN(C(=O)C(C)c4ccc(-n5cnnn5)cc4)C[C@H]3CO2)ccc(F)c1C#N (some centres unmarked)
2. Cc1c([C@H]2CN3CCN(C(=O)CCc4cccc(-n5cnnn5)c4)CC3CO2)ccc(F)c1C#N (stereo in doubt)
3. Cc1c([C@H]2CN3CCN(C(=O)Cc4ccc(-n5cnnn5)cc4)C[C@H]3CO2)csc1C#N
4. Cc1c([C@@H]2CN3CCN(C(=O)Cc4ccc(-n5cnnn5)cc4Cl)C[C@H]3CO2)ccc(F)c1C#N
5. COc1cc(F)c([C@@H]2CN3CCN(C(=O)Cc4ccc(-n5cnnn5)cc4)C[C@H]3CO2)cc1C#N

1. 330
2. 140
3. 90
4. 250
5. 180

For each listed entry, give its IC50.
1. Cc1c([C@@H]2CN3CCN(C(=O)Cc4ccc(-n5cnnn5)cc4C#N)C[C@@H]3CO2)ccc(F)c1C#N
2. COc1ccc([C@@H]2CN3CCN(C(=O)Cc4ccc(-n5cnnn5)cc4)C[C@H]3CO2)c(C)c1C#N
3. Cc1c([C@@H]2CN3CCN(C(=O)Cc4ccc(-n5cnnn5)cc4)C[C@@H]3CO2)ccc2c1COC2=O

1. 210
2. 140
3. 120

Below are 7 compounds. Give each one its IC50.
1. O=C(Cc1ccc(-n2cnnn2)cc1)N1CCN2C[C@@H](c3ccc4nonc4c3)OC[C@@H]2C1
2. Cc1c([C@H]2CN3CCN(C(=O)C4CCc5cc(-n6cnnn6)ccc54)C[C@H]3CO2)ccc2c1COC2=O (single isomer, unassigned)
3. Cc1c([C@H]2CN3CCN(C(=O)Cc4ccc(-n5cnnn5)cc4)C[C@H]3CN2)ccc(F)c1C#N
4. COc1cc([C@H]2CN3CCN(C(=O)C4CCc5cc(-n6cnnn6)ccc54)C[C@H]3CO2)ccc1C#N (mixture of isomers)
5. Cc1c([C@@H]2CN3CCN(C(=O)Cc4ccc(-n5cnnn5)cc4C#N)C[C@H]3CO2)ccc(F)c1C#N
6. Cc1c(CC(=O)N2CCN3C[C@@H](c4ccc(F)c(C#N)c4C)OC[C@H]3C2)cccc1-n1cnnn1
7. Cc1c([C@@H]2CN3CCN(C(=O)CCc4cccc(-n5cnnn5)c4)C[C@H]3CO2)ccc(F)c1C#N

150
230
60
370
130
440
270

###

- system.under.test: Kir1.1 (ROMK1) (Homo sapiens (Human), UniProt P48048)
- run.description: Electrophysiology Assay (whole cell voltage clamp, IonWorks Quattro)
- Assay type: cell-based
- test.parameters: Chinese hamster ovary cells stably expressing Kir1.1; block during voltage step to 0 mV; read-out: Electrophysiology IC50
Please use condition met for IC50 under 0.2 µM and condition not met for everything else, ties included.

molecule: Cc1c([C@H]2CN3CCN(C(=O)Cc4cc(-n5cnnn5)ccc4F)C[C@@H]3CO2)ccc(F)c1C#N
system.under.test: Kir1.1 (ROMK1) (Homo sapiens (Human), UniProt P48048)
label.class: condition met

Does this molecule meet the criterion IC50 < 0.2 µM? Cc1c(CC(=O)N2CCN3C[C@H](c4ccc(F)c(C#N)c4C)OC[C@H]3C2)cccc1-n1cnnn1 condition not met

# strict comparison: is reported IC50 < 0.2 µM? input = O=C1OCc2cc([C@@H]3CN4CCN(C(=O)Cc5ccc(-n6cnnn6)cc5)C[C@H]4CO3)ccc21 condition met

For this molecule, is IC50 lower than 0.2 µM? Cc1c([C@@H]2CN3CCN(C(=O)C4CCc5cc(-n6cnnn6)ccc54)C[C@H]3CO2)csc1C#N (single isomer, unassigned) [Example 82] condition met

###

- system.under.test: Kir1.1 (ROMK1) (Homo sapiens (Human), UniProt P48048)
- run.description: Electrophysiology Assay (whole cell voltage clamp, IonWorks Quattro)
- Type: cell-based
- test.parameters: Chinese hamster ovary cells stably expressing Kir1.1; block during voltage step to 0 mV; read-out: Electrophysiology IC50
Just a reminder that ties go to 0: only IC50 strictly below 200 nM counts as 1.

Example results:
compound: O=C(C1CCc2cc(-n3cnnn3)ccc21)N1CCN2C[C@@H](c3cccc(-n4cnnn4)c3)OC[C@@H]2C1 (single isomer, unassigned) [Example 80]
label.class: 0
//
compound: COc1cc([C@@H]2CN3CCN(C(=O)C4CCc5cc(-n6cnnn6)ccc54)C[C@@H]3CO2)ccc1C#N (stereo partly drawn) [Example 64]
label.class: 0
//
compound: Cc1c([C@@H]2CN3CCN(C(=O)C4CCCc5cc(-n6cnnn6)ccc54)C[C@H]3CO2)csc1C#N (single isomer, unassigned) [Example 96]
label.class: 1
//
compound: Cc1c([C@H]2CN3CCN(C(=O)Cc4cccc(-n5cnnn5)c4)C[C@H]3CO2)ccc(F)c1C#N [Example 46]
label.class: 1

Now examine the next entry.
hey, is IC50 for O=C(C1CCc2cc(-n3cnnn3)ccc21)N1CCN2C[C@@H](c3ccc4nonc4c3)OC[C@@H]2C1 (stereo partly drawn) [Example 78] lower than 200 nM or not? 1
